Source of measurements: patent US20160108128A1

# assay.target: T1, J1 DSL-EGF3 soluble recombinant protein (human Jagged 1 amino acids 185-335) (human, UniProt P78504 185-335)
# T1 construct: biotinylated in the CD46 ELISA; also called J1-DE3; DSL+EGF1-3
# T1 sequence (P78504 185-335, form in doubt): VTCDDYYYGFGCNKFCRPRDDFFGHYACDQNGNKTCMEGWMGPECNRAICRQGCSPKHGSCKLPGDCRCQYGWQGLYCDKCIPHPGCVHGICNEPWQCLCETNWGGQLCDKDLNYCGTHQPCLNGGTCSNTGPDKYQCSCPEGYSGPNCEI
# experimental.details: affinity to the immunogen J1-DE3; method not stated
Listed next: entries and their corresponding Kd.
The reply should contain only the number, in nM.

Consider the reported Kd for these binders:
# binder, Kd / nM
measured = [
    ("J1-183D variant 13 (antibody, human IgG1, V domains shown, human IgG1; also called J1-183DV13; V13) VH: QVQLVQSGAELKKPGASVKVSCKVSGYAFTDYAIHWIRQAPGQGLEWMGIINTYYGDSKYNQKFKDRVTMTVDKSTSTAYMELSSLRSEDTAVYYCARGYDGFAYWGQGTLVTVSS VL: DIQMTQSPSSLSASVGDRVTITCRTSENIYSYLTWYQQKPGKAPKLLIYHAKILDSGVPSRFSGSGSGTDFTLTISSLQPEDFATYYCQHHYDIPWTFGGGTKLEIKR", 1.5),
    ("J1-183D variant 11 (antibody, human IgG1, V domains shown, human IgG1; also called J1-183DV11; V11) VH: QVQLVQSGAELKKPGASVKVSCKVSGYAFTDYAIHWVRQAPGQGLEWMGIINTYYGDSKYAQKFQGRVTMTVDTSTSTAYMELSSLRSEDTAVYYCARGYDGFAYWGQGTLVTVSS VL: DIQMTQSPSSLSASVGDRVTITCRTSENIYSYLTWYQQKPGKAPKLLIYNAKILDSGVPSRFSGSGSGTDFTLTISSLQPEDFATYYCQHHYDIPWTFGGGTKLEIKR", 2.82),
    ("J1-65D variant 11 (antibody, human IgG1, V domains shown, human IgG1; also called J1-65DV11; V11) VH: QVQLVQSGAEVKKPGSSVKVSCKASGYTFTDYEMHWVRQAPGQGLEWMGAIQPGGGGTAYAQKFQGRVTLTADKSTSTAYMELSSLRSEDTAVYYCTRRGYDDYPFAYWGQGTLVTVSS VL: DIQMTQSPSSLSASVGDRVTITCRASGNIHNYLAWYQQKPGKAPKLLIYNAKTLADAVPSRFSGSGSGTDYTLTISSLQPEDFATYYCQHFWSAPWTFGQGTKLEIKR", 0.243),
    ("J1-183D variant 4 (antibody, human IgG1, V domains shown, human IgG1; also called J1-183DV4; V4) VH: QVQLVQSGAEVKKPGASVKVSCKASGYTFTDYAIHWVRQAPGQGLEWMGIINTYYGDSKYAQKFQGRVTMTVDTSTSTAYMELSSLRSEDTAVYYCARGYDGFAYWGQGTLVTVSS VL: DIQMTQSPSSLSASVGDRVTITCRTSENIYSYLTWYQQKPGKAPKLLVYNAKILAAGVPSRFSGSGSGTDFTLTISSLQPEDFATYYCQHHYDIPWTFGGGTKLEIKR", 2.76),
    ("J1-65D variant 5 (antibody, human IgG1, V domains shown, human IgG1; also called J1-65DV5; V5) VH: QVQLVQSGAELKKPGSSVKVSCKASGYTFTDYEMHWVRQAPGQGLEWMGAIQPGGGGTAYNQKFKGRVTLTADKSTSTAYMELSSLRSEDTAVYYCTRRGYDDYPFAYWGQGTLVTVSS VL: DIQMTQSPSSLSASVGDRVTITCRASGNIHNYLAWYQQKPGKAPKLLIYNAKTLADAVPSRFSGSGSGTDYTLTISSLQPEDFATYYCQHFWSAPWTFGGGTKLEIKR", 0.0446),
]

Using known records, supply Kd for J1-65D variant 15 (antibody, human IgG1, V domains shown, human IgG1; also called J1-65DV15; V15) VH: QVQLVQSGAEVKKPGSSVKVSCKASGYTFTDYEMHWVRQAPGQGLEWMGAIQPGGGGTAYAQKFQGRVTLTADKSTSTAYMELSSLRSEDTAVYYCTRRGYDDYPFAYWGQGTLVTVSS VL: DIQMTQSPSSLSASVGDRVTITCRASQGIHNYLAWYQQKPGKAPKLLIYNAKTLADAVPSRFSGSGSGTDYTLTISSLQPEDFATYYCQQFWSAPWTFGQGTKLEIK
39.8

Retrieve Kd measured for J1-65D variant 2 (antibody, human IgG1, V domains shown, human IgG1; also called J1-65DV2; V2) VH: QVQLVQSGAELKKPGSSVKVSCKASGYTFTDYEMHWVRQAPGQGLEWMGAIQPGGGGTAYAQKFKGRVTLTADKSTSTAYMELSSLRSEDTAVYYCTRRGYDDYPFAYWGQGTLVTVSS VL: DIQMTQSPSSLSASVGDRVTITCRASGNIHNYLAWYQQKPGKAPKLLIYNAKTLADDVPSRFSGSGSGTDYTLTISSLQPEDFATYYCQHFWSAPWTFGGGTKLEIKR and print it.
0.165

Report Kd for J1-183D variant 15 (antibody, human IgG1, V domains shown, human IgG1; also called J1-183DV15; V15) VH: QVQLVQSGAELKKPGASVKVSCKVSGYAFTDYAIHWVRQAPGQGLEWMGIINTYYGDSKYAQKFQGRVTMTVDTSTSTAYMELSSLRSEDTAVYYCARGYDGFAYWGQGTLVTVSS VL: DIQMTQSPSSLSASVGDRVTITCRTSENIYSYLTWYQQKPGKAPKLLIYHAKILDSGVPSRFSGSGSGTDFTLTISSLQPEDFATYYCQHHYDIPWTFGGGTKLEIKR
5.47

Output measured Kd for this item: J1-65D variant 10 (antibody, human IgG1, V domains shown, human IgG1; also called J1-65DV10; V10) VH: QVQLVQSGAELKKPGSSVKVSCKASGYTFTDYEMHWVRQAPGQGLEWMGAIQPGGGGTAYAQKFKGRVTLTADKSTSTAYMELSSLRSEDTAVYYCTRRGYDDYPFAYWGQGTLVTVSS VL: DIQMTQSPSSLSASVGDRVTITCRASGNIHNYLAWYQQKPGKAPKLLIYNAKTLADAVPSRFSGSGSGTDYTLTISSLQPEDFATYYCQHFWSAPWTFGQGTKLEIKR
0.293

# return recorded Kd for input J1-183D variant 3 (antibody, human IgG1, V domains shown, human IgG1; also called J1-183DV3; V3) VH: QVQLVQSGAELKKPGASVKVSCKVSGYAFTDYAIHWVRQAPGQGLEWMGIINTYYGDSKYAQKFQGRVTMTVDTSTSTAYMELSSLRSEDTAVYYCARGYDGFAYWGQGTLVTVSS VL: DIQMTQSPSSLSASVGDRVTITCRTSENIYSYLTWYQQKPGKAPKLLVYNAKILAAGVPSRFSGSGSGTDFTLTISSLQPEDFATYYCQHHYDIPWTFGGGTKLEIKR
2.55
